Entry source: patent US11999727B2

We begin with a simple list: items and their reported pIC50.
biological target: PRMT5 (Homo sapiens, UniProt O14744); construct: purchased Viva (custom protein); assay: PRMT5 biochemical IC50 assay with MTA as cofactor; conditions: PRMT5, MTA as cofactor; read-out: MTA IC50
Sequence (O14744 whole entry): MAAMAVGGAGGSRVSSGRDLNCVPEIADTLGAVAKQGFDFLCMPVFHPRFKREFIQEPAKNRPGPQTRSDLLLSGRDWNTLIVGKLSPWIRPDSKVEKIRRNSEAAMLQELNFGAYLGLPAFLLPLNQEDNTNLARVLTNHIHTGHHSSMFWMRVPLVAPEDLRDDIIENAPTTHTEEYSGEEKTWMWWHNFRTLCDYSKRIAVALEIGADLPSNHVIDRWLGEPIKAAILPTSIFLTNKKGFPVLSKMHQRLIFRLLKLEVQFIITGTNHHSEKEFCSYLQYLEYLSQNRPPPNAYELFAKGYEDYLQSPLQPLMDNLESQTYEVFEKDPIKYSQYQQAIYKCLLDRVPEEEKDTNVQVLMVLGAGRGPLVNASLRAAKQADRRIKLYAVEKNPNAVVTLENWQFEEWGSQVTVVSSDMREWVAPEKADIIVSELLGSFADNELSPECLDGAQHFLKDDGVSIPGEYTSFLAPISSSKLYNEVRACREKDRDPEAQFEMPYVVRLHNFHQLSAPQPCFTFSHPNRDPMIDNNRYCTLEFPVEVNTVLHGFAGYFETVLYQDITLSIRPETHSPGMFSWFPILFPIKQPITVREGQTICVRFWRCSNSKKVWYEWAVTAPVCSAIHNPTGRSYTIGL
Sequence (Q9BQA1 whole entry partner): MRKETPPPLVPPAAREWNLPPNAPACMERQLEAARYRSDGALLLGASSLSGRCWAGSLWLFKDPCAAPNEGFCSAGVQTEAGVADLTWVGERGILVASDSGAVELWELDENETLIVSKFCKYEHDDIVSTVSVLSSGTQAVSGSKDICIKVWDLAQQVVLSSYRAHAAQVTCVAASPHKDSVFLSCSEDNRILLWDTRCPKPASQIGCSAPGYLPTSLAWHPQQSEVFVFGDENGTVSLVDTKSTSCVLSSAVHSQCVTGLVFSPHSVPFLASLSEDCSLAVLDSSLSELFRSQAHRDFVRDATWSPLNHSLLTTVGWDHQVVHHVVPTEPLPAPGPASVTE
pIC50: −log10 of the molar value.

Observe how each entry below is paired with its result.
CCc1cc(NC(=O)C(=O)N2C[C@@H](C)CC[C@@H]2c2ccc3sc(CN(CC)C(C)C)nc3c2)cnc1N = > 7.30
CCc1cc(NC(=O)C(=O)N2C[C@@H](C)CC[C@@H]2c2ccc(NC)nc2)cnc1N (single isomer, unassigned) = < 6.30
Cc1cc(NC(=O)C(=O)N2C[C@@H](C)CC[C@@H]2c2ccc3sc(C4CCN(C)CC4)cc3c2)cnc1N = > 7.30

The record that follows has no pIC50 shown yet.
Requested field: pIC50. Item: COc1ncc(NC(=O)C(=O)N2C[C@@H](C)CC[C@@H]2c2ccc3sc(CCN(C)C)nc3c2)cc1C(N)=O (racemic) [Compound 1281] > 7.30
